# Tested on: TK-10 renal
# Test Protocol: NCI tumour cell line growth inhibition, 48 h
Property Measured: GI50

-- ask Reported GI50, molecule Cn1c(N2NC(=O)C(N=Nc3ccc(S(N)(=O)=O)cc3)C2=O)nc(-c2ccco2)c(C#N)c1=O (stereo unspecified) : ____
-- reply 8.64 µM

---

Catalogue of compounds with associated TGI
# Test system: HOP-62 NSCLC
# Test Protocol: NCI tumour cell line growth inhibition, 48 h
Write the value in µM as a bare number.

Consider the worked cases shown below.
- COc1ccc(-c2cc(-c3ccco3)c(C#N)c(=S)n2C2OC(COC(C)=O)C(OC(C)=O)C(OC(C)=O)C2OC(C)=O)cc1 (centres undefined): 8.88
- COc1cc(C2c3cc4c(cc3C(NCC(O)CO)C3COC(=O)[C@H]23)OCO4)cc(OC)c1OC (some centres undefined): 0.676

-- ask I am curious: what TGI value has been reported for COc1cc(OC)cc(-c2ccc(-c3ccc(C(=N)N)o3)o2)c1 ?
-- reply 19.1

-- ask And then Cc1ccc(S(=O)(=O)N(CCOc2ccc(/C(N)=N/Cl)cc2)CCOc2ccc(/C(N)=N\Cl)cc2)cc1 , what is it?
-- reply 33.2

---

# System: UACC-62 melanoma
# Test Protocol: NCI tumour cell line growth inhibition, 48 h; in the data active = GI50 below about 0.43 µM; inactive = the rest
Would you mind answering with one of these outcomes? active, inactive

The examples below pair each entry with its known result.
- CCc1c(Oc2ccc(C(C)=O)cc2)c2ccccc2[nH]c1=O: inactive
- CC1=C(C(=O)Nc2ccc3[nH]ncc3c2)C(c2ccc3ccccc3c2)CC(=O)N1 (stereo not drawn): inactive
- O=C1c2cccc(NCCN=Cc3cc(O)ccc3O)c2C(=O)c2c(NCCN=Cc3cc(O)ccc3O)cccc21: inactive
- CN1CCN(Cc2ccc(NC(=O)c3cncc(C#Cc4cnc(N)c5ccc(C#N)cc45)c3)cc2C(F)(F)F)CC1: active
- CC1OC(O[C@H]2C[C@@H](O)[C@]3(CO)[C@H]4[C@H](O)C[C@]5(C)[C@@H](C6=CC(=O)OC6)CC[C@]5(O)[C@@H]4CC[C@]3(O)C2)C(O)C(O)C1O (stereo partly drawn): inactive

-- ask How did this test come out for CC(C)CC(=O)[O-].CC(C)CC(=O)[O-].N.N.N.N.[Co+3].[O-][Cl+3]([O-])([O-])[O-] ?
-- reply inactive

-- ask Can you handle Cn1c(N2NC(=O)C(N=Nc3ccc(S(N)(=O)=O)cc3)C2=O)nc(-c2ccco2)c(C#N)c1=O (stereo not drawn) next?
-- reply inactive

-- ask Entry to check: COc1cc(OC)cc(-c2ccc(-c3ccc(C(=N)N)o3)o2)c1
-- reply inactive

---

# Tested on: U251 CNS
Tick one outcome: active, inactive

The examples below pair each entry with its known result.
- CCCCC/C(C=C(C#N)C#N)=C/c1ccccc1: inactive
- C[C@]12CC[C@H](O)CC1=CC[C@@H]1[C@@H]2CC[C@]2(C)C(c3cccnc3)=CC[C@@H]12: inactive

-- ask Please indicate how the test categorized COc1cc2c3c(n(C)c(=O)c2cc1OC)-c1cc2c(cc1/C3=C\CCCN1C(=O)c3ccccc3C1=O)OCO2 .
-- reply inactive

-- ask Note, next up: O=c1oc2ccc(F)cc2c(=O)n1-c1ccc(F)cc1F
-- reply inactive

-- ask Another compound to look at: Cn1c(N2NC(=O)C(N=Nc3ccc(S(N)(=O)=O)cc3)C2=O)nc(-c2ccco2)c(C#N)c1=O (stereo not drawn)
-- reply inactive

-- ask // same read-out, input: N#CSCC1CC(O)(c2ccccc2)C(c2ccccc2)C(c2ccc(Cl)cc2)O1 (stereo not drawn)
-- reply inactive

-- ask Please do the same for CC1=C(CCCNS(C)(=O)=O)C2=C(C)C3(CC3)[C@@](C)(O)C(=O)C2=C1 as well.
-- reply inactive

---

# Test system: HS 578T breast
# Test Protocol: NCI tumour cell line growth inhibition, 48 h
// reported GI50 for each item listed

- O=C1/C(=C/c2ccc(Cl)cc2Cl)N=C(c2ccccc2)N1Cc1ccco1: 22.7 µM

-- ask For the molecule shown here, COc1ccc2[nH]c(O)c(/C=c3/cc4c(c(-c5cc(OC)c(OC)c(OC)c5)n3)=Nc3ccccc3-4)c2c1 , give the reported GI50.
-- reply 9.81 µM

-- ask Also need Cc1ccc(CS/C(=C\c2ccc([N+](=O)[O-])cc2)C(=O)c2ccc(F)cc2)cc1 , thanks.
-- reply 2.35 µM

-- ask For O=C(c1ccco1)c1nc2ccc(C(F)(F)F)cc2[n+]([O-])c1C(F)(F)F then?
-- reply > 100 µM

---

Here the recorded TGI is given for each entry.
# System: UO-31 renal
# Test Protocol: NCI tumour cell line growth inhibition, 48 h
# unit: µM | format: bare number

* Cc1nnc2n1N=C(c1cc(F)c(Cl)cc1Cl)/C(=C/c1ccc(Cl)cc1)S2 | 27.4
* O=C1c2c(c3c4ccccc4n(CCCCCCBr)c3c3[nH]c4ccccc4c23)C(=O)N1O | 10.1

-- ask Would you kindly share the measured TGI for CCOC(=O)C1Cc2[nH]c3ccccc3c2C(C)C1C (stereo not given) ?
-- reply 35.8

-- ask And the next one, O=C(Nc1ccc(N2CCNCC2)cc1)c1[nH]ncc1Nc1cc(Oc2ccccc2)ncn1 ?
-- reply 3.36

-- ask For O=C(CC(=O)n1nc(-c2ccccc2)c(N=Nc2ccccc2C(=O)O)c1-c1ccccc1)Nc1ccc(Cl)cc1 then?
-- reply 47.8

-- ask What do you have for Cc1ccc2c(c1)C(=O)/C(=C/c1ncc([N+](=O)[O-])n1C)O2 ?
-- reply 5.04

---

The following compounds are listed with their measured TGI values.
# Test system: UO-31 renal
# Test Protocol: NCI tumour cell line growth inhibition, 48 h
*1 amine or outer side, *2 acyl side, *3 side chain or, on linkers, in order; H or OH if unused. Where a SMILES comes first, the peptide text is derived from it. Bridges are numbered along the chain shown (N, C = ends). [ ]: non-standard residue; d: D form. The star is where a group is joined. ξ: configuration not given here. X34 = O=C(C(CCCCNO[*:3])N[*:1])[*:2]; Fmoc = O=C(OCC1c2ccccc2-c2ccccc21)*; ξW = NC(Cc1c[nH]c2ccccc12)C(=O)O; ξP = O=C(O)C1CCCN1

// solved cases for TGI follow
- COCOC1/C=C/CCCCC2=C(C)C=C(C1)O2 (stereo not given): > 100 µM
- O=C(NNC(=S)Nc1ccc(Cl)cc1)c1cc(-c2ccccc2)nc2ccccc12: 18.1 µM
- NC(=O)CNC(=O)C1CCCN1C(=O)C1CCCCNOC(=O)CC[C@@H](NC(=O)OCC2c3ccccc3-c3ccccc32)C(=O)NC(Cc2c[nH]c3ccccc23)C(=O)N1 (stereo not given in full) (Fmoc-[dE][ξW][X34][ξP]G-NH2; ester 1-3): > 100 µM

-- ask May I ask what TGI has been recorded for O=[N+]([O-])/C=C\c1ccc(Cl)c(Cl)c1 ?
-- reply 2.33 µM

-- ask Proceed to Clc1ccc(C2N3CCCCC3[C@@H]3c4[nH]c5ccccc5c4CCN23)cc1 (stereo not given in full)
-- reply > 100 µM

-- ask // query: CC1OC(O[C@H]2C[C@@H](O)[C@]3(CO)[C@H]4[C@H](O)C[C@]5(C)[C@@H](C6=CC(=O)OC6)CC[C@]5(O)[C@@H]4CC[C@]3(O)C2)C(O)C(O)C1O (stereo not given in full)
-- reply 57.1 µM

-- ask // query: Oc1ccc(/C=C/c2cc(O)cc(O)c2)cc1
-- reply > 100 µM

-- ask Now consider Nc1cc(CO)cc(Nc2nc3ccc(Cl)cc3c3[nH]c4ccccc4c23)c1 .
-- reply 11.6 µM

-- ask Check COC(=O)C1=C(C(=O)OC)C2C=CC1C1C(Cl)=C(Cl)C21 (stereo not given) too.
-- reply > 100 µM

-- ask Request: Cc1ccc(-c2c3c([nH]c(=O)c2C#N)-c2cc(F)ccc2OC3)cc1
-- reply > 100 µM

-- ask Please do the same for Cc1nc2c(sc(=S)n2-c2ccccc2)c2nc3ncccc3n12 as well.
-- reply > 100 µM

-- ask Now consider CCc1c(Oc2ccc(C(C)=O)cc2)c2ccccc2[nH]c1=O and answer again.
-- reply > 100 µM

---

# Test system: SNB-19 CNS
# Test Protocol: NCI tumour cell line growth inhibition, 48 h
Property Measured: GI50

- N#Cc1ccc(C#Cc2ccccc2C#CCCCCO)cc1: 15.8 µM

-- ask Entry under review: COc1cc(OC)cc(-c2ccc(-c3ccc(C(=N)N)o3)o2)c1 . Reported GI50?
-- reply 3.02 µM

-- ask Again, but for C[C@]12CC[C@H](O)CC1=CC[C@@H]1[C@@H]2CC[C@]2(C)C(c3cccnc3)=CC[C@@H]12
-- reply 26.8 µM

-- ask Repeat with COc1ccc2[nH]c(O)c(/C=c3/cc4c(c(-c5cc(OC)c(OC)c(OC)c5)n3)=Nc3ccccc3-4)c2c1
-- reply 26 µM

This collection of values is drawn from PubChem BioAssay (NCI).
